# protocol text: Permeability in a Caco-2 assay
# Assay type: in vitro ADME
# assay conditions: human, Caco-2, Assay Conc. 10 μM, without verapamil; read-out: Mean B-A % Recovery
assay metric: recovery at 10 μM (%)
Return type: number; implicit unit %.

Consider the compound CNC(=C[N+](=O)[O-])NCCSCc1ccc(CN(C)C)o1 [Ranitidine, reference compound] and give its measured recovery at 10 μM.
95.2

Consider the compound CC(=O)CC(c1ccccc1)c1c(O)c2ccccc2oc1=O (centres unmarked) [Warfarin, reference compound] and give its measured recovery at 10 μM.
93.4

====

# protocol text: Permeability in a Caco-2 assay
# Type: in vitro ADME
# assay conditions: human, Caco-2, Assay Conc. 10 μM, without verapamil
assay metric: Papp B→A at 10 μM (×10⁻⁶ cm/s)
Return type: number; implicit unit ×10⁻⁶ cm/s.

Consider the compound CC(=O)CC(c1ccccc1)c1c(O)c2ccccc2oc1=O (centres unmarked) [Warfarin, reference compound] and give its measured Papp B→A at 10 μM.
33.8

Consider the compound CNC(=C[N+](=O)[O-])NCCSCc1ccc(CN(C)C)o1 [Ranitidine, reference compound] and give its measured Papp B→A at 10 μM.
1.03
